These data points were gathered from the Human Domainome abundance scans (Beltran et al. 2025).

B1: CD2-associated protein, residues 271 to 331; numbered along this chain, Q9Y5K6 (parent)
chain: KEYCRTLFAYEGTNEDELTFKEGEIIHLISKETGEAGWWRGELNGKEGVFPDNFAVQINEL

- Variants of: B1
- experiment-summary: abundance fitness (aPCA) (normalised: wild type 0, dead -1); higher = more abundant; growth selection in yeast, the domain comes from the species named
- test-conditions: Homo sapiens
readout-kind: abundance fitness
Answers are plain numbers.

{"macromolecule-sequence": "KEYCRTLFAYEGTNEDELTFKEGEIIHLISKETGEAGWWRGELNGKEGVFPDNNAVQINEL", "abundance fitness": -0.625}
{"macromolecule-sequence": "KEYCRTLFAYEGHNEDELTFKEGEIIHLISKETGEAGWWRGELNGKEGVFPDNFAVQINEL", "abundance fitness": -0.197}
{"macromolecule-sequence": "KEYCRTLFAYEMTNEDELTFKEGEIIHLISKETGEAGWWRGELNGKEGVFPDNFAVQINEL", "abundance fitness": -0.786}
{"macromolecule-sequence": "KEYCRTLFAYEGTNEDELTFKEGDIIHLISKETGEAGWWRGELNGKEGVFPDNFAVQINEL", "abundance fitness": -0.036}

I would be grateful if you could provide abundance fitness for each of the following entries.
1. KEYCRTLFAYEGTNEDELTFKEGEIIHLISKETVEAGWWRGELNGKEGVFPDNFAVQINEL
2. KEYCRTLFAYEGTNWDELTFKEGEIIHLISKETGEAGWWRGELNGKEGVFPDNFAVQINEL
3. KEYCRTLFAYEGTNEDELTQKEGEIIHLISKETGEAGWWRGELNGKEGVFPDNFAVQINEL
4. KEYCRTLFAYEGTNEDELTFKEGEIIHLISKETGEAGWWRGELNGKEGVFPDDFAVQINEL
5. KEYCRTLFAYEGTNEDELTFKEGAIIHLISKETGEAGWWRGELNGKEGVFPDNFAVQINEL

Reply text:
-0.368
-0.343
-0.629
-0.094
-0.312

Batch of 3 variants: report abundance fitness for each.
1. KEYCRTLFAYEGTNEDELTFKEGEIIHLISKETGEAGWWRGELDGKEGVFPDNFAVQINEL
2. KEYCRTLFAYEGTNEDELTFKEGEVIHLISKETGEAGWWRGELNGKEGVFPDNFAVQINEL
3. KEYCRTLFAYEHTNEDELTFKEGEIIHLISKETGEAGWWRGELNGKEGVFPDNFAVQINEL

Reply text:
1: -0.113; 2: -0.083; 3: -0.837

Go through the items and report each one's abundance fitness.
1. KEYCRTLFIYEGTNEDELTFKEGEIIHLISKETGEAGWWRGELNGKEGVFPDNFAVQINEL
2. KEYCRTLFAYEGTNEDELTFKEGEIIHLISKETGVAGWWRGELNGKEGVFPDNFAVQINEL
3. KEYCRTLFAYEGTNEDELTFKEGEIIHLISKETGEAGWWRGELNGKEGCFPDNFAVQINEL
4. KEYCRTLFAYEGTNEDELTFKEGEIEHLISKETGEAGWWRGELNGKEGVFPDNFAVQINEL
5. KEYCRTLFAYEGTNEDEGTFKEGEIIHLISKETGEAGWWRGELNGKEGVFPDNFAVQINEL
6. KEYCRTLFAYEGTNEDELTFKEGEIIHLISKETGEAGWRRGELNGKEGVFPDNFAVQINEL
7. CEYCRTLFAYEGTNEDELTFKEGEIIHLISKETGEAGWWRGELNGKEGVFPDNFAVQINEL
8. KEYCRTLFAYEGTNEDELTFKEGEIIHLISKETGEAGWWRGELNGKEGVFPDNFAIQINEL

Reply text:
-0.542
0.032
-0.11
-0.725
-0.889
-0.547
-0.629
-0.327

Please go through the list and note abundance fitness for each variant.
1. KEYCRTLFAYEGTNEIELTFKEGEIIHLISKETGEAGWWRGELNGKEGVFPDNFAVQINEL
2. KEYCRTLFAYEGTNEDELTFKEGEIIHHISKETGEAGWWRGELNGKEGVFPDNFAVQINEL
3. KEYCRTLFAYEGTNEDELTFKEGEIIHLISKETGEAGWWRGELNGKEGVFPDNFAVQINLL
4. KEYCRTTFAYEGTNEDELTFKEGEIIHLISKETGEAGWWRGELNGKEGVFPDNFAVQINEL
5. KEYCRTLFAYEGTNEDELTFKEGEIIHLISKETGQAGWWRGELNGKEGVFPDNFAVQINEL

Reply text:
[-0.699, -0.623, -0.296, -0.017, 0.036]
